molecular target: PI3Kα (Homo sapiens (Human), UniProt P42336); test: PI3Kα enzyme activity inhibition IC50 evaluation assay; type: biochemical; conditions: ratio PI3Kα vs PI3Kδ
Sequence (P42336 whole entry): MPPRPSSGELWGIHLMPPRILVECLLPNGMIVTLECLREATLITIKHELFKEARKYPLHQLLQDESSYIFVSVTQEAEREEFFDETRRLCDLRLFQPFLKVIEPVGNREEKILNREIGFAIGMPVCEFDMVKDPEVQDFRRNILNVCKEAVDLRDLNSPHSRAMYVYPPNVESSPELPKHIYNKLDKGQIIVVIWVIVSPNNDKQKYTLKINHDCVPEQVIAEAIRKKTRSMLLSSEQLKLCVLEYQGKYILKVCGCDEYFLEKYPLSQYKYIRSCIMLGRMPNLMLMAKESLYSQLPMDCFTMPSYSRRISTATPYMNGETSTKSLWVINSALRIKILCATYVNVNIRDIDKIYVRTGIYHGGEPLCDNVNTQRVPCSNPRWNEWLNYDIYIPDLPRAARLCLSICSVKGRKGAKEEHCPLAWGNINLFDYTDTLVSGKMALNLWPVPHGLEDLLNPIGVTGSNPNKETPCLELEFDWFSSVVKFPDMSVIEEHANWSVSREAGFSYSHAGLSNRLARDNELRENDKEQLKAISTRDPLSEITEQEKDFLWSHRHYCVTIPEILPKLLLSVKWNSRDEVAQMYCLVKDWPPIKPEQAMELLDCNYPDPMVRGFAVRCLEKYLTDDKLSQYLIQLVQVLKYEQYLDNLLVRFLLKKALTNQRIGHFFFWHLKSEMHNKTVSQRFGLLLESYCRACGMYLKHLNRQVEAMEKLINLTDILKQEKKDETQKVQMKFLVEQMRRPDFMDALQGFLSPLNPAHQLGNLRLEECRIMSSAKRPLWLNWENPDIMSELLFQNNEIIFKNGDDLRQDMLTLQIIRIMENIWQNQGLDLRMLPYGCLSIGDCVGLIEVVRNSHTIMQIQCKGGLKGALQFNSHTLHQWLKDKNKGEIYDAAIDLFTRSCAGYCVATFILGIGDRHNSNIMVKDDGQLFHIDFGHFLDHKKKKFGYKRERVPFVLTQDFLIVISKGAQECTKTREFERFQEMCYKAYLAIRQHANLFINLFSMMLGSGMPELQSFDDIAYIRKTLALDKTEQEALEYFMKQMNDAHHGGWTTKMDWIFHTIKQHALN
Sequence (P27986 whole entry partner): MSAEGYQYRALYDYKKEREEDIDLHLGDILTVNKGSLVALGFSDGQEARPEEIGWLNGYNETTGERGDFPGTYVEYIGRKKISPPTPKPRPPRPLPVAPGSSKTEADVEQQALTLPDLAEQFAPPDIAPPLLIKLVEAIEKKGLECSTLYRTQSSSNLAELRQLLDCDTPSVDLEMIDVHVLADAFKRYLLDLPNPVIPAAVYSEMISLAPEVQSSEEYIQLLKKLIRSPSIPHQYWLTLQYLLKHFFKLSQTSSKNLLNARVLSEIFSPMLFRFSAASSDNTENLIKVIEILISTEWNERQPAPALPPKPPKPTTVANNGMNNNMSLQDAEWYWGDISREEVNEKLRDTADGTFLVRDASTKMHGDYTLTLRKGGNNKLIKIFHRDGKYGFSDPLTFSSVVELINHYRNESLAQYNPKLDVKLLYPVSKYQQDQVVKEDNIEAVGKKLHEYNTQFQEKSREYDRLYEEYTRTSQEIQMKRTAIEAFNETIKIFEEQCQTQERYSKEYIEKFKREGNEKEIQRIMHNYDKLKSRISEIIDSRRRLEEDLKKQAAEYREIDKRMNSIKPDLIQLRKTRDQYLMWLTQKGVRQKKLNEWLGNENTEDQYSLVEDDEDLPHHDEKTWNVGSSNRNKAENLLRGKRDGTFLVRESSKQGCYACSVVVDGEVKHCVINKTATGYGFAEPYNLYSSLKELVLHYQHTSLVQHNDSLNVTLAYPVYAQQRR
Could you label it yes if measured α/δ selectivity is 50 or higher, and no otherwise?

molecule	class.name
COc1ncc(-c2nc(N3CCOCC3)nc3c(CN4CCc5sccc5C4)c(C)sc23)cc1NS(C)(=O)=O [Compound 143]	yes
COc1ncc(-c2nc(N3CCOCC3)nc3c(CN4CC5CC4CN5C4COC4)csc23)cc1NS(C)(=O)=O (centres unmarked) [Compound 48]	yes
COc1ncc(-c2nc(N3CCOCC3)nc3c(CCN4CCCCC4)c(C)sc23)cc1NS(C)(=O)=O [Compound 135]	yes

Check the entry COc1ncc(-c2nc(N3CCOCC3)nc3c(CN4CCN(C)C(=O)C4)c(C)sc23)cc1NS(C)(=O)=O [Compound 140] : does α/δ selectivity equal or exceed 50?
yes

The reported measurements were obtained from patent US9745321B2.
